Where these numbers come from: PubChem BioAssay AID1460

Molecular target: Microtubule-associated protein tau (Homo sapiens) (UniProt P10636)
Sequence (P10636 561-689 P618L limits assumed): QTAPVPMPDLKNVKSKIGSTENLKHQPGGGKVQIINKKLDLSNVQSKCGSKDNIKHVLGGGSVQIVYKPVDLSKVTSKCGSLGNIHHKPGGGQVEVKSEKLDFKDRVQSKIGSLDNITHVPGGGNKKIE
Assay: qHTS for Inhibitors of Tau Fibril Formation, Thioflavin T Binding; further: nearly all actives have a fitted effect of over 55% in size; further: potency means the concentration at half of the fitted maximal effect
Details: recombinant tau K18 P301L, heparin-induced fibrillization, ThT fluorescence; series mostly up to 57.4 µM
Out of some 270,000 compounds screened, about 5,800 (2.1%) were called active. Inconclusive results (about 16%) are left out. The list comes from a sample in which actives are over-represented; it also holds close analogues and randomly drawn compounds.
readout.type: Potency

{"compound": "O=C(Nc1ccccc1F)C(c1ccccc1)N1Cc2ccccc2C1=O (stereo unspecified)", "target.or.system": "Microtubule-associated protein tau (Homo sapiens) (UniProt P10636)", "readout.type": "Potency", "data.value": "inactive"}
{"compound": "CCOc1ccc(CNC(=O)c2cc(-c3ccc(Cl)s3)nc3ccccc23)cc1", "target.or.system": "Microtubule-associated protein tau (Homo sapiens) (UniProt P10636)", "readout.type": "Potency", "data.value": "inactive"}
{"compound": "O=C(Nc1ccccc1)Nc1ccccc1C(=O)NCc1ccco1", "target.or.system": "Microtubule-associated protein tau (Homo sapiens) (UniProt P10636)", "readout.type": "Potency", "data.value": "inactive"}
{"compound": "Cc1cccc(NC(=O)c2sc3nc4c(c(-c5ccco5)c3c2N)CCC4)c1", "target.or.system": "Microtubule-associated protein tau (Homo sapiens) (UniProt P10636)", "readout.type": "Potency", "data.value": "7.94 µM (active)"}
{"compound": "CCc1ccc(-c2cc(C(=O)NCc3ccco3)c3ccccc3n2)s1", "target.or.system": "Microtubule-associated protein tau (Homo sapiens) (UniProt P10636)", "readout.type": "Potency", "data.value": "25.1 µM (active)"}
{"compound": "NC(=O)c1sc2nc3c(c(-c4ccccc4)c2c1N)CCC3", "target.or.system": "Microtubule-associated protein tau (Homo sapiens) (UniProt P10636)", "readout.type": "Potency", "data.value": "inactive"}

====

Molecular target: Microtubule-associated protein tau (Homo sapiens)
Test: qHTS for Inhibitors of Tau Fibril Formation, Thioflavin T Binding; further: nearly all actives have a fitted effect of over 55% in size; further: potency means the concentration at half of the fitted maximal effect
Conditions: recombinant tau K18 P301L, heparin-induced fibrillization, ThT fluorescence; series mostly up to 57.4 µM
Excerpt: NIH Molecular Libraries Probe Production Network [MLPCN] NIH Chemical Genomics Center [NCGC] Assay Provider: Carlo Ballatore, University of Pennsylvania The microtubule-associated protein tau is an abundant protein in the axons of neurons that stabilizes microtubules. With its ability to modulate microtubule dynamics, tau contributes directly or indirectly, to key structural and regulatory cellular functions. […] This assay monitors tau fibrillization by Thioflavin T (ThT) fluorescence. […]
The whole screen tested about 270,000 compounds, of which about 5,800 (2.1%) were called active. Inconclusive results (about 16%) are left out. Shown is part of a subset that was picked to be rich in actives.
readout.type: Potency

{"molecule": "C=CC(C1=CC(=O)C=CC1=O)c1ccc(O)cc1 (stereo unspecified)", "target.or.system": "Microtubule-associated protein tau (Homo sapiens)", "readout.type": "Potency", "data.value": "28.2 µM (active)"}
{"molecule": "CCc1ccc(NC(=O)c2nn(-c3ccc(C)cc3)c(=O)n(C)c2=O)cc1", "target.or.system": "Microtubule-associated protein tau (Homo sapiens)", "readout.type": "Potency", "data.value": "inactive"}
{"molecule": "O=C(NCc1ccccc1)c1cccc(NC(=O)N2CCSc3ncccc32)c1", "target.or.system": "Microtubule-associated protein tau (Homo sapiens)", "readout.type": "Potency", "data.value": "inactive"}
{"molecule": "Cc1ccc(Cl)cc1NC(=O)CCC(=O)N1CC(C)Sc2ccccc21 (stereo unspecified)", "target.or.system": "Microtubule-associated protein tau (Homo sapiens)", "readout.type": "Potency", "data.value": "inactive"}
{"molecule": "Oc1ccc(N=Nc2nccs2)c(O)c1", "target.or.system": "Microtubule-associated protein tau (Homo sapiens)", "readout.type": "Potency", "data.value": "3.55 µM (active)"}
{"molecule": "Oc1ccc2ccccc2c1N=Nc1nccs1", "target.or.system": "Microtubule-associated protein tau (Homo sapiens)", "readout.type": "Potency", "data.value": "7.94 µM (active)"}

====

Target: Microtubule-associated protein tau (Homo sapiens)
Assay: qHTS for Inhibitors of Tau Fibril Formation, Thioflavin T Binding; further: nearly all actives have a fitted effect of over 55% in size; further: potency means the concentration at half of the fitted maximal effect
Conditions: recombinant tau K18 P301L, heparin-induced fibrillization, ThT fluorescence; series mostly up to 57.4 µM
In all, about 270,000 compounds went through this assay and about 5,800 (2.1%) were called active. Not shown: some 16% with an inconclusive outcome. This is one part of a sample in which actives are shown more often than they occur.
readout.type: Potency

{"compound": "COc1cc(NC(=O)c2cc(C3CC3)nc3c2c(C)nn3-c2ccccc2)cc(OC)c1", "data.value": "inactive"}
{"compound": "COc1cc(OC)c(NC(=O)c2nc(-c3ccncc3)no2)cc1Cl", "data.value": "inactive"}
{"compound": "CCOc1cccc(NC(=O)c2ccc(F)c(S(=O)(=O)N(CC)c3cccc(C)c3)c2)c1", "data.value": "inactive"}
{"compound": "O=C(Nc1ccccc1Br)c1cc(CN2CCCC2)on1", "data.value": "inactive"}
{"compound": "COc1ccc(N2C(=O)CS(=O)(=O)C23C(=O)N(Cc2ccc(C)cc2)c2ccccc23)cc1Cl (configuration not stated)", "data.value": "inactive"}
{"compound": "O=C(Nc1cccc(Cl)c1)c1csnn1", "data.value": "inactive"}
{"compound": "Cc1cccc(C(=O)N2CCc3cc(CNC(=O)Cc4ccc(F)cc4)ccc32)c1", "data.value": "inactive"}
{"compound": "Cc1cccc(C2CC(=O)Oc3c2c(=O)n(C)c2ccccc32)c1 (configuration not stated)", "data.value": "inactive"}
{"compound": "O=c1[nH]n2c(=O)c3c([nH]c2c1N=Nc1ccccc1)CCC3", "data.value": "3.16 µM (active)"}
{"compound": "Cc1ccc(N2CC(NC(=O)Cc3cccs3)CC2=O)cc1 (configuration not stated)", "data.value": "inactive"}
{"compound": "COc1cccc(NC(=O)c2ccc3nc(CCc4ccccc4)oc3c2)c1", "data.value": "inactive"}
{"compound": "COc1ccc(S(=O)(=O)NCc2cccn2Cc2cccc(C)c2)cc1", "data.value": "inactive"}
{"compound": "CCCN(C(=O)Cn1ncc2c([nH]c3ccc(C)cc32)c1=O)c1ccccc1C", "data.value": "inactive"}
{"compound": "CCCCc1nn2c(=O)cc(COC(=O)c3ccc(NC(=O)c4ccccc4C)cc3)nc2s1", "data.value": "inactive"}
{"compound": "CCOC(=O)c1c(S(=O)(=O)N2CCC(C(=O)NCc3ccccc3OC)CC2)c(C)n(C)c1C", "data.value": "inactive"}
{"compound": "CNC(=O)CN1C(=O)c2cccnc2Sc2ccccc21", "data.value": "inactive"}
{"compound": "Cc1ccc(OCC(=O)OCc2cc(=O)n3nc(C4CC4)sc3n2)cc1C", "data.value": "inactive"}
{"compound": "CCN(CC)S(=O)(=O)c1ccc2c(c1)nc(CN(C)C(=O)Nc1ccc(Cl)cc1)n2C", "data.value": "inactive"}
{"compound": "CC(=O)N1c2ccc(S(=O)(=O)N3CCCCCC3)cc2CC1C(=O)NCc1ccccc1C (configuration not stated)", "data.value": "inactive"}
{"compound": "O=C1CSC(=S)N1/N=C/c1ccc(O)c([N+](=O)[O-])c1", "data.value": "6.31 µM (active)"}
{"compound": "CNc1ccc(SC#N)cc1", "data.value": "12.6 µM (active)"}
{"compound": "N#CC1=C(N)Oc2c(sc3ccccc23)C1c1ccco1 (configuration not stated)", "data.value": "15.8 µM (active)"}

====

Molecular target: Microtubule-associated protein tau (Homo sapiens)
Assay: qHTS for Inhibitors of Tau Fibril Formation, Thioflavin T Binding; further: nearly all actives have a fitted effect of over 55% in size; further: potency means the concentration at half of the fitted maximal effect
Details: recombinant tau K18 P301L (four-repeat tau fragment), heparin-induced fibrillization, ThT fluorescence; series mostly up to 57.4 µM
The whole screen tested about 270,000 compounds, of which about 5,800 (2.1%) were called active. About 16% were inconclusive and are not listed. The sample as a whole holds a higher share of actives than the screen did.

{"compound": "CCc1ccc(NC(=O)CCCc2nnc3n(CCCOC)c(=O)c4sccc4n23)cc1", "Potency": "inactive"}
{"compound": "Cc1ccc(NC(=O)CN2CCC(C(N)=O)CC2)cc1[N+](=O)[O-]", "Potency": "inactive"}
{"compound": "Cc1csc2nc(COC(=O)c3ccc(NC(=O)COc4ccccc4F)cc3)cc(=O)n12", "Potency": "inactive"}
{"compound": "Cc1c(NC(=O)/C=C/C(=O)O)cccc1[N+](=O)[O-]", "Potency": "inactive"}
{"compound": "COc1ccccc1N1CCN(c2ccc(=O)n(CC(=O)NCc3ccc(OC(C)C)cc3)n2)CC1", "Potency": "inactive"}
{"compound": "COc1ccc(Br)cc1/C=N/n1c(C)nnc1C", "Potency": "inactive"}
{"compound": "Cc1ccc(NC(=O)Cn2cnc3nc4c(cc3c2=O)CCCC4)cc1Cl", "Potency": "inactive"}
{"compound": "CCOC(=O)Cc1csc(NC(=O)Nc2ccccc2)n1", "Potency": "inactive"}
{"compound": "COc1cc(/C=N\\NC(=O)c2nonc2N)c(OC)cc1Br", "Potency": "inactive"}
{"compound": "O=c1cc(-c2ccccc2)nc(N2CCCCC2)[nH]1", "Potency": "inactive"}
{"compound": "CCOC(=O)c1cc(-c2ccccc2)n(CCC(=O)Nc2ccccc2CC)c1C", "Potency": "inactive"}
{"compound": "O=C(O)/C=C/C(=O)NNc1ccc([N+](=O)[O-])cc1", "Potency": "15.8 µM (active)"}
{"compound": "Cc1ccc(C)c(Oc2c(C(F)(F)F)oc3c(CN4CCN(C)CC4)c(O)ccc3c2=O)c1", "Potency": "inactive"}
{"compound": "COC(=O)c1sc(=S)n(-c2ccccc2)c1N", "Potency": "inactive"}
{"compound": "COc1ccc(/C=C2/SC(=O)N(CCCCCC(=O)Nc3ccccc3C(=O)O)C2=S)cc1", "Potency": "11.2 µM (active)"}
{"compound": "O=C(NCc1ccccc1Cl)C1CCN(c2ncnc3c2nc2n3CCCCC2)CC1", "Potency": "inactive"}
{"compound": "CCc1nnc2c3ccccc3nc(N3CCN(c4ccc(C)cc4C)CC3)n12", "Potency": "inactive"}
{"compound": "O=Cc1cn(Cc2ccccc2)nc1-c1cccnc1", "Potency": "inactive"}
{"compound": "CC1CN(C(=O)N2CCC(C(=O)NCc3ccco3)CC2)c2cc(Cl)ccc2O1 (centres undefined)", "Potency": "31.6 µM (active)"}
{"compound": "COc1cc(C2C(C(=O)OCCC#N)=C(C)NC3=C2S(=O)(=O)c2ccccc23)cc(OC)c1OC (centres undefined)", "Potency": "inactive"}
{"compound": "CCN1CCN(c2ncc3c(n2)CC(c2ccccc2O)CC3=O)CC1 (centres undefined)", "Potency": "inactive"}
{"compound": "Cc1c(Cl)cccc1NC(=O)C(=O)NCCc1csc2nc(-c3ccccc3F)nn12", "Potency": "inactive"}
{"compound": "COc1ccc(Cn2ccn(CC(=O)Nc3cc(C)ccc3C)c(=O)c2=O)cc1", "Potency": "inactive"}
{"compound": "O=C(NC1CC1)c1ccc2c(c1)NC(=O)c1ccccc1S2", "Potency": "inactive"}
{"compound": "COc1ccc(C)cc1N(C)C(=O)c1c(C)oc2ncnc(N3CCOCC3)c12", "Potency": "inactive"}
{"compound": "Cc1cccc(C)c1Nc1c(-c2ccccc2O)nc2ncccn12", "Potency": "inactive"}
{"compound": "COc1cc(Br)cc(/C=N/c2ncn[nH]2)c1O", "Potency": "14.1 µM (active)"}
{"compound": "CCOC(=O)c1cc2n(c1N)-c1ccccc1C2=O", "Potency": "14.1 µM (active)"}
{"compound": "Cc1c(-c2nc(-c3ccc4c(c3)OCO4)no2)nnn1-c1ccc(Br)cc1F", "Potency": "inactive"}
{"compound": "Clc1ccc(CN2CCN(/N=C/c3cccnc3)CC2)cc1", "Potency": "inactive"}
{"compound": "O=C(Nc1ccc2nc(SCC(=O)N3CCCc4ccccc43)sc2c1)c1ccc(Cl)cc1", "Potency": "inactive"}
{"compound": "Cc1ccc(-c2ccc(/C=N/NC(=O)CN3CCOCC3)o2)cc1[N+](=O)[O-]", "Potency": "15.8 µM (active)"}
{"compound": "Nc1nnnn1CC(=O)N/N=C/c1ccc(-c2cccc(Cl)c2)o1", "Potency": "inactive"}
{"compound": "COc1ccc(C(=O)Nc2onc3c2CCCC3)cc1", "Potency": "inactive"}
{"compound": "Cc1c(NC(=O)Nc2ccccc2)cccc1[N+](=O)[O-]", "Potency": "inactive"}
{"compound": "N#C/C(=C\\c1ccc(N2CCOCC2)o1)C(=O)N1CCOCC1", "Potency": "inactive"}
{"compound": "Cc1cc(C)c([N+](=O)[O-])cc1-c1ccc(/C=N/NC(=O)c2nonc2N)o1", "Potency": "5.01 µM (active)"}
{"compound": "O=C1/C(=C\\c2cccnc2)CN(Cc2ccccc2)C/C1=C\\c1cccnc1", "Potency": "14.1 µM (active)"}
{"compound": "CCC(CC)C(=O)N1CCc2cc(OC)c(OC)cc2C1COc1ccc(F)cc1 (centres undefined)", "Potency": "inactive"}
{"compound": "CSC1=N/C(=C\\C=C\\c2cccs2)C(=O)S1", "Potency": "14.1 µM (active)"}
{"compound": "CCN(CC)C(=O)CSC(Nc1cccc(F)c1)=C(C#N)C#N", "Potency": "28.2 µM (active)"}
{"compound": "Cc1ccc(S(=O)(=O)c2ccc(Oc3ccccc3)cc2)cc1", "Potency": "inactive"}
{"compound": "CCOc1cc(C2C(C(=O)Nc3ccc(OC)cc3)=C(C)Nc3nc(SC)nn32)ccc1O (centres undefined)", "Potency": "inactive"}
{"compound": "COc1ccc(Cc2nc3ccc(C(=O)NCc4ccccc4Cl)cc3o2)cc1", "Potency": "inactive"}
